Target: HLA-A*02:01 (Homo sapiens, UniProt P04439, D140Y/D185E/D98H/E176V/E277Q/G131W/G231S/I119V/I121R/I166T/I218V/L300P/L318F/N151K/N90K/P208A/P217A/Q86G/Q94H/R138H/R169H/T345S)
Experiment: MHC binding assay (UV-ligand exchange, beta2m ELISA)
Conditions: binding to HLA-A*02:01, β2m ELISA
From the text: Candidate peptides for T cell based therapies according to the present invention were further tested for their MHC binding capacity (affinity). The individual peptide-MHC complexes were produced by UV-ligand exchange, where a UV-sensitive peptide is cleaved upon UV-irradiation, and exchanged with the peptide of interest as analyzed. Only peptide candidates that can effectively bind and stabilize the peptide-receptive MHC molecules prevent dissociation of the MHC complexes. […]
measurement label: Peptide exchange (MHC class I binding score, peptide exchange yield)

Recorded results for 5 substances are shown here.
substance: 22 (LMYPYIYHV; listed as Homo sapiens) [compound 22]
result: +++ (≥50 = +++)
//
substance: 220 (ALSELERVL; listed as Homo sapiens) [compound 220]
result: +++ (≥50 = +++)
//
substance: 20 (ALVEKGEFAL; listed as Homo sapiens) [compound 20]
result: ++ (≥20% = ++)
//
substance: 140 (FLDSQITTV; listed as Homo sapiens) [compound 140]
result: +++ (≥50 = +++)
//
substance: 149 (NMADGQLHQV; listed as Homo sapiens) [compound 149]
result: ++ (≥20% = ++)

If you can, please state the reported Peptide exchange (MHC class I binding score, peptide exchange yield) value of 192 (TLLPSSGLVTL; listed as Homo sapiens) [compound 192] .
++ (≥20% = ++)

If you can, please state the reported Peptide exchange (MHC class I binding score, peptide exchange yield) value of 211 (LLTTVLINA; listed as Homo sapiens) [compound 211] .
+++ (≥50 = +++)

Cited source: patent US10081665B2
